Target sequence: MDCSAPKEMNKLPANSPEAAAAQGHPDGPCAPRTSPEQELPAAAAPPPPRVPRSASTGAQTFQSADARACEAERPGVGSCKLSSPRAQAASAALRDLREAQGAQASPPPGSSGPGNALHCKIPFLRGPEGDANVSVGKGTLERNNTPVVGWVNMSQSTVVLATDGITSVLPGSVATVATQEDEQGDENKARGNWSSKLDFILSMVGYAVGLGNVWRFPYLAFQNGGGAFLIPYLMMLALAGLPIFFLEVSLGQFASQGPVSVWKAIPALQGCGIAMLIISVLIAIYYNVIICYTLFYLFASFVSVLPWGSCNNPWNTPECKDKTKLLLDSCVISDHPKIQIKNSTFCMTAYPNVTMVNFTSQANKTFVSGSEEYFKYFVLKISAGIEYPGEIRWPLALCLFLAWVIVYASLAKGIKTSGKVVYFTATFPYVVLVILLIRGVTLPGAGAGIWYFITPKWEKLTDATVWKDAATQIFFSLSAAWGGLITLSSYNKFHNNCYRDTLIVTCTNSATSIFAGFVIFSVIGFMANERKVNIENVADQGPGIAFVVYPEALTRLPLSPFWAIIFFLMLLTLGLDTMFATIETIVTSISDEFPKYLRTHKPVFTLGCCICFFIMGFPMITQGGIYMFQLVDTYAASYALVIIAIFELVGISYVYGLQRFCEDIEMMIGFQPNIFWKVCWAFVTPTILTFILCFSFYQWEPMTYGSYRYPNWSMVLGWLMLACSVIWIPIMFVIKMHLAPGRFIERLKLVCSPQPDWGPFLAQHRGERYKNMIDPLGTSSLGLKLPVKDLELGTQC
reportedProperty: pEC50
Friendly reminder that pEC50 comes from taking -log10 of the concentration in mol/L.

Lab note: measured pEC50 of NCC(=O)O [GLYCINE] was 3.89
